# experimental_target: Prostaglandin D2 receptor 2 (Homo sapiens)
# protocol_description: Displacement of [3H]PGD2 from human CRTH2 receptor expressed in 293 cells by scintillation counting in presence of 50% human plasma
# Format: cell-based, HEK293
Answer each item with its documented IC50.

Input: Which measured IC50 value corresponds to CC(=O)N(c1ccccc1)C1CC(C)N(C(=O)c2ccc(OC(F)(F)F)cc2)c2ccccc21 (racemic) ?
Output: > 10 µM

Input: State the recorded IC50 for this entry: C[C@@H]1C[C@H](N(C(=O)CCC(=O)O)c2ccccc2)c2ccccc2N1C(=O)c1ccccc1
Output: 0.039 µM

Input: Look up IC50: CC(=O)N(c1ccccc1)[C@@H]1C[C@H](C)N(C(=O)c2ccccc2)c2ccccc21
Output: 0.44 µM

Input: Look up IC50 for this compound: CC1CC(N(C(=O)CCC(=O)O)c2ccccc2)c2ccccc2N1C(=O)c1ccccc1 (racemic)
Output: 0.028 µM

###

# experimental_target: Prostaglandin D2 receptor 2 (Homo sapiens, UniProt Q9Y5Y4)
# Sequence (Q9Y5Y4 whole entry): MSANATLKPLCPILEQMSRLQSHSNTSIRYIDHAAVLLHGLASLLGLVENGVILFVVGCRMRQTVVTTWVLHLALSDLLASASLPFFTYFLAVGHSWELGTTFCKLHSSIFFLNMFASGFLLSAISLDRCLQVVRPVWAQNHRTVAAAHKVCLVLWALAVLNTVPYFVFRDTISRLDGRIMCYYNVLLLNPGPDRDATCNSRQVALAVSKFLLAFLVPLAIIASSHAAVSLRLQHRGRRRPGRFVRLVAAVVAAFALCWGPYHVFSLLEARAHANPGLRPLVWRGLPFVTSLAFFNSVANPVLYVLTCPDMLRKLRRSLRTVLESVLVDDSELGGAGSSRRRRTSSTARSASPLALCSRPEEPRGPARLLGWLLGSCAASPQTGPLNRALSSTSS
# protocol_description: Displacement of [3H]PGD2 from human CRTH2 receptor expressed in 293 cells by scintillation counting in presence of 0.5% BSA
# Type: cell-based, HEK293
Answer each item with its documented pIC50.
Reminder that pIC50 is minus the log10 of a molar concentration.

Input: Give the measured pIC50 of COc1ccc(C(=O)N2c3ccccc3C(N(C(C)=O)c3ccccc3)CC2C)cc1 (racemic) .
Output: 7.55

Input: Using the record for CC(=O)N(c1ccccc1)[C@@H]1C[C@H](C)N(C(=O)c2ccccc2)c2ccccc21 , report its pIC50.
Output: 7.77

Input: // returns reported pIC50 for input CC(=O)N(c1ccccc1)C1CC(C)N(C(=O)c2ccc(OC(F)(F)F)cc2)c2ccccc21 (racemic)
Output: 7.59

Input: Reported pIC50 for CC1CC(N(C(=O)c2cccc(C(=O)O)c2)c2ccccc2)c2ccccc2N1C(=O)c1ccccc1 (racemic) : what is it?
Output: 4.39

Input: Consider the molecule shown here: CC1CC(N(c2ccccc2)S(=O)(=O)c2ccccc2)c2ccccc2N1C(=O)c1ccccc1 (racemic) What is its recorded pIC50?
Output: 5.26

Input: Report pIC50 for CC(=O)N(c1ccccc1)C1CC(C)N(C(=O)Cc2ccccc2)c2ccccc21 (racemic) please.
Output: 5.76

Input: GET /values?readout=pIC50&item= CC1CC(N(C(=O)/C=C/C(=O)O)c2ccccc2)c2ccccc2N1C(=O)c1ccccc1 (racemic)
Output: 5.64

###

# experimental_target: Prostaglandin D2 receptor 2 (Homo sapiens, UniProt Q9Y5Y4)
# protocol_description: Displacement of [3H]PGD2 from human CRTH2 receptor expressed in 293 cells by scintillation counting in presence of 0.5% BSA
# Format: cell-based, HEK293
property_name: log10 of IC50 (log10 of the value in nM)
Quick note: numbers are log10 of IC50, with nM as the unit.

Input: Could you share which log10 of IC50 value was measured for CC1CC(N(C(=O)CC(=O)O)c2ccccc2)c2ccccc2N1C(=O)c1ccccc1 (racemic) ?
Output: 2.73

Input: Which log10 of IC50 is reported for this molecule? CC1CC(N(C(=O)CCCC(=O)O)c2ccccc2)c2ccccc2N1C(=O)c1ccccc1 (racemic)
Output: 1.34

Input: Requested read-out: log10 of IC50. Entry: CC(=O)N(c1ccccc1)[C@H]1C[C@@H](C)N(C(=O)c2ccccc2)c2ccccc21
Output: 2.62

Input: What value of log10 of IC50 has been reported for the following molecule? CC(=O)N(c1ccccc1)C1CC(C)N(C(=O)OCc2ccccc2)c2ccccc21 (racemic)
Output: 2.96

Input: // returns reported log10 of IC50 for input CCN(C(C)=O)C1CC(C)N(C(=O)c2ccccc2)c2ccccc21 (racemic)
Output: 2.40

Input: Looking for the measured log10 of IC50 of CC1CC(N(C(=O)CCC(=O)O)c2ccccc2)c2ccccc2N1C(=O)c1ccccc1 (racemic) , can you help?
Output: 0.70

Input: Item CC(=O)N(c1ccccc1)C1CC(C)N(C(=O)c2ccc(C)c(C)c2)c2ccccc21 (racemic) has what recorded log10 of IC50?
Output: 1.96

Input: Can you look up the measured log10 of IC50 of CC(=O)N(c1ccccc1)C1CC(C)N(C(=O)c2ccc(Cl)cc2)c2ccccc21 (racemic) for me?
Output: 1.97

Input: Quick one: log10 of IC50 of CC(=O)N(c1ccccc1)C1CC(C)N(C(=O)c2ccccc2C)c2ccccc21 (racemic) ?
Output: 3.15

Input: What measured log10 of IC50 goes with CC(=O)N(c1ccccc1)C1CC(C)N(Cc2ccccc2)c2ccccc21 (racemic) ?
Output: 2.30

Input: Could you tell me which log10 of IC50 is on file for CC(=O)N(c1ccccc1)C1CC(C)N(C(=O)c2ccc(C(C)(C)C)cc2)c2ccccc21 (racemic) ?
Output: 1.53

Input: Using the record for CC1CC(N(C(=O)CCC(=O)ON)c2ccccc2)c2ccccc2N1C(=O)c1ccccc1 (racemic) , report its log10 of IC50.
Output: 1.46
